Data credit: ChEMBL document CHEMBL3396947

Tested on: MT4
Experiment: Cytotoxicity against human MT4 cells after 4 to 5 days by trypan blue dye exclusion method
Type: cell-based
PROPERTY_NAME: CC50

Examples with answers:
# COMPOUND, CC50
measured = [
    ("CCCCCOC(=O)[C@H](C)NP(=O)(Oc1ccccc1)O[C@@H]1CC[C@H](O)[C@H]1CO (stereo partly drawn)", "> 250 µM"),
    ("OC[C@H]1[C@H](O)CC[C@@H]1O", "90 µM"),
]

Now for the compound whose CC50 we want.
Entry under review: C[C@H](NP(=O)(Oc1cccc2ccccc12)O[C@@H]1CC[C@H](O)[C@H]1CO)C(=O)OCC(C)(C)C (stereo partly drawn) . Reported CC50?
112 µM
